Origin of values: ChEMBL document CHEMBL5325425

- Measurement target: Small conductance calcium-activated potassium channel protein 1 (Homo sapiens, UniProt Q92952)
- Sequence (Q92952 whole entry): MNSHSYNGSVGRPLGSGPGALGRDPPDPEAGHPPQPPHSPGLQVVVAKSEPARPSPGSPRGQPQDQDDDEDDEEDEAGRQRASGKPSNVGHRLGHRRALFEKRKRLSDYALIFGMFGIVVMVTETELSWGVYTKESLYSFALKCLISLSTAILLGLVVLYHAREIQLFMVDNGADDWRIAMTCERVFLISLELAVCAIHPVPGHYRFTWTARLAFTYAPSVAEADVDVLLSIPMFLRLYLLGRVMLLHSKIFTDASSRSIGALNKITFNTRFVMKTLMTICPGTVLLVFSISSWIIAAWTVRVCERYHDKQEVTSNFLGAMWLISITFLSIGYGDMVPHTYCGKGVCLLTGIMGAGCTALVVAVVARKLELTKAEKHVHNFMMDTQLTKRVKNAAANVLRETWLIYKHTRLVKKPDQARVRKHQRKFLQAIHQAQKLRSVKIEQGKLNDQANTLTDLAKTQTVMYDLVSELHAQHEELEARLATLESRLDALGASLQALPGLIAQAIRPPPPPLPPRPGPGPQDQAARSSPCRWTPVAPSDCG
- Method: Positive modulation of SK1 (unknown origin)
pEC50: −log10 of the molar value.
Quantity kind: pEC50

[[record]]
mol = "Cc1cc(NC2CCCCC2)nc(-n2nc(C)cc2C)n1"
measured_value = "< 4.00"


###

- Measurement target: Small conductance calcium-activated potassium channel protein 2 (Homo sapiens, UniProt Q9H2S1)
- Sequence (Q9H2S1 whole entry): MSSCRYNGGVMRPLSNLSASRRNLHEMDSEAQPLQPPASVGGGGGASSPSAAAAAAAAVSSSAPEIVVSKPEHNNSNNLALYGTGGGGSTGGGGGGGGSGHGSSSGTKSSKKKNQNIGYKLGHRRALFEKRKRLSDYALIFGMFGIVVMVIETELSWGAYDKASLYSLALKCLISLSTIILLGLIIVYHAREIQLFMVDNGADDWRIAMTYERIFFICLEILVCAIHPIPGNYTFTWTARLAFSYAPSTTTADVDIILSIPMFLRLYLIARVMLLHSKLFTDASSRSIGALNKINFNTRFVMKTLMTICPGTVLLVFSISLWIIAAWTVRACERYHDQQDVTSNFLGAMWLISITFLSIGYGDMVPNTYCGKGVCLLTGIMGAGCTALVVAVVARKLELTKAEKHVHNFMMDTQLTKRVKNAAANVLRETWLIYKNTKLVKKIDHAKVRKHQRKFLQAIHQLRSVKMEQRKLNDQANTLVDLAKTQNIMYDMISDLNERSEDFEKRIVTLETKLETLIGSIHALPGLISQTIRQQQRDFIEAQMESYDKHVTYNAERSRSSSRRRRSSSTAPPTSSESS
- Method: Positive modulation of SK2 in HEK293 cells in presence of Ca2+ by patch-clamp method
- Assay type: cell-based
Quantity kind: EC50 (nM)

[[record]]
mol = "Cc1cc(C)n(-c2nc(Nc3ccc(Cl)cc3)c3ncn(C)c3n2)n1"
quantity_kind = "EC50"
units_of_measure = "nM"
measured_value = 1800

[[record]]
mol = "O=C1Nc2c(ccc(Cl)c2Cl)C1=NO"
quantity_kind = "EC50"
units_of_measure = "nM"
measured_value = 800


###

- Method: AUC (0 to infinity) in fasted Sprague-Dawley rat at 100 mg/kg, po measured upto 12 hrs by LC-MS/MS analysis
- Format: ADME, organism-based
- Design: time < 12 hrs, dose 100 mg/kg, route po
- Cond: in vivo
Quantity kind: AUC(0-inf) (ng·h/mL)

[[record]]
mol = "Cc1cc(C)n(-c2nc(Nc3cccc(Br)c3)c3ccn(C)c3n2)n1"
units_of_measure = "ng·h/mL"
measured_value = 2510


###

Listed here are compounds together with their documented EC50.
- Measurement target: Small conductance calcium-activated potassium channel protein 1 (Homo sapiens, UniProt Q92952)
- Method: Positive modulation of SK1 in HEK293 cells in presence of Ca2+ by patch-clamp method
- Assay type: cell-based
Quantity kind: EC50 (nM)

[[record]]
mol = "Cc1cc(C)n(-c2nc(Nc3ccc(Cl)cc3)c3ncn(C)c3n2)n1"
quantity_kind = "EC50"
units_of_measure = "nM"
operator = ">"
measured_value = 100000

[[record]]
mol = "O=C1Nc2c(ccc(Cl)c2Cl)C1=NO"
quantity_kind = "EC50"
units_of_measure = "nM"
operator = "="
measured_value = 600


###

Listed here are molecules together with their documented Cmax.
- Method: Cmax in fasted Sprague-Dawley rat at 100 mg/kg, po measured upto 12 hrs by LC-MS/MS analysis
- Assay type: ADME, organism-based
- Design: time < 12 hrs, dose 100 mg/kg, route po
- Cond: in vivo
Quantity kind: Cmax (ng/mL)

[[record]]
mol = "Cc1cc(C)n(-c2nc(Nc3cccc(Br)c3)c3ccn(C)c3n2)n1"
units_of_measure = "ng/mL"
measured_value = 662

[[record]]
mol = "Cc1ccn(-c2nc(Nc3ccc(F)cc3)c3ccn(C)c3n2)n1"
units_of_measure = "ng/mL"
measured_value = 488


###

Listed here are molecules together with their documented MRT.
- Method: MRT in fasted Sprague-Dawley rat at 100 mg/kg, po measured upto 12 hrs by LC-MS/MS analysis
- Format: ADME, organism-based
- Cond: in vivo
Quantity kind: MRT

[[record]]
mol = "Cc1ccn(-c2nc(Nc3ccc(F)cc3)c3ccn(C)c3n2)n1"
quantity_kind = "MRT"
measured_value = "3.37 h"

[[record]]
mol = "Cc1cc(C)n(-c2nc(Nc3cccc(Br)c3)c3ccn(C)c3n2)n1"
quantity_kind = "MRT"
measured_value = "3.22 h"


###

- Method: Oral bioavailability in fasted Sprague-Dawley rat at 100 mg/kg measured upto 12 hrs by LC-MS/MS analysis
- Assay type: ADME, organism-based
- Cond: Sprague-Dawley, in vivo
Quantity kind: bioavailability (%)

[[record]]
mol = "Cc1cc(C)n(-c2nc(Nc3cccc(Br)c3)c3ccn(C)c3n2)n1"
quantity_kind = "bioavailability"
units_of_measure = "%"
measured_value = 4.03

